Each entry below carries its reported Kd.
# ASSAY_SYSTEM: T1, hTRF2-DBD A471S (Homo sapiens, UniProt Q15554 SEQ:1-63)
# T1 chain: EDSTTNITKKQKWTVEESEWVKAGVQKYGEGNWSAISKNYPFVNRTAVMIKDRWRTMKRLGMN
# TEST_PROTOCOL: SPR; pH 6.8, 180 mM KCl, 293 K
# CONDITION_NOTES: tags: N-terminal Met added; untagged, E. coli BL21(DE3) pET23b; label: biotin (13mer on SA chip)
Kindly provide the numeric value in µM only, without the unit symbol.

Please report the measured Kd for G7C (dsDNA) DNA 1: GTTAGGCTTAGGG DNA 2: CCCTAAGCCTAAC
32.3

Please report the measured Kd for T3G (dsDNA) DNA 1: GTGAGGGTTAGGG DNA 2: CCCTAACCCTCAC
3.07

Please report the measured Kd for T9G (dsDNA) DNA 1: GTTAGGGTGAGGG DNA 2: CCCTCACCCTAAC
44.2

Please report the measured Kd for tr13 (dsDNA) DNA 1: GTTAGGGTTAGGG DNA 2: CCCTAACCCTAAC
0.482
